Biological target: 1b (BK) NS5bΔ21 (Hepatitis C virus genotype 1b (isolate BK) (HCV), UniProt P26663)
Sequence (P26663 2420-2989): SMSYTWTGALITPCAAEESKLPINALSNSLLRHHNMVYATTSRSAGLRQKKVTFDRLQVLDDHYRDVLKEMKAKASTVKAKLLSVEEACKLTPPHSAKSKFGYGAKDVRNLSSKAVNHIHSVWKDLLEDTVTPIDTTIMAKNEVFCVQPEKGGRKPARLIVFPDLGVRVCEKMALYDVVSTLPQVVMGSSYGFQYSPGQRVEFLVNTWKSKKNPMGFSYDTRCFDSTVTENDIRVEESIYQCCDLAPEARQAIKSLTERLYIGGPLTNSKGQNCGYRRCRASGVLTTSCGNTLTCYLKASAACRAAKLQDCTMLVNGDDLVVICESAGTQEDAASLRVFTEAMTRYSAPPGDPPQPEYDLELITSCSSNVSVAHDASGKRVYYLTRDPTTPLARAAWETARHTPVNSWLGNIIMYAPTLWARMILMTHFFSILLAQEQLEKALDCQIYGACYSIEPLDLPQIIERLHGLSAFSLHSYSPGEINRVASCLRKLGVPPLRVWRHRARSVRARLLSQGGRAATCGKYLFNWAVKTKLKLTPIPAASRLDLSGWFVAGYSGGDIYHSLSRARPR
Assay: HCV polymerase inhibition assay, genotype 1b
Assay type: biochemical, HCV genotype 1b (BK)
Details: genotype 1b; read-out: 1b NS5b polymerase IC50

| record-smiles | IC50 (nM) |
| --- | --- |
| CNC(=O)c1c2cc(C3CC3)c(N(CCCNC(=O)c3cccc(OC)c3F)S(C)(=O)=O)cc2nn1-c1ccc(Br)cc1 | 130 |
| CNC(=O)c1c2cc(C3CC3)c(N(CCCNC(=O)C(F)(F)F)S(C)(=O)=O)cc2nn1-c1ccc(Br)cc1 | 110 |
| CCOC(=O)CCN(c1cc2nn(-c3ccc(Br)cc3)c(C(=O)NC)c2cc1C1CC1)S(C)(=O)=O | 370 |
| CNC(=O)c1c2cc(C3CC3)c(N(CCCSC)S(C)(=O)=O)cc2nn1-c1ccc(Br)cc1 | 90 |
| CNC(=O)c1c2cc(C3CC3)c(N(CCCNC(=O)CCC(=O)OC)S(C)(=O)=O)cc2nn1-c1ccc(Br)cc1 | 320 |
| CNC(=O)c1c2cc(C3CC3)c(N(CCCNC(=O)c3cccnc3OC)S(C)(=O)=O)cc2nn1-c1ccc(Br)cc1 | 830 |
| CNC(=O)c1c2cc(C3CC3)c(N(CCCO)S(C)(=O)=O)cc2nn1-c1ccc(Nc2ccccc2F)cc1 | 70 |
| CNC(=O)c1c2cc(C3CC3)c(N(CCCO)S(C)(=O)=O)cc2nn1-c1ccc(Cl)cc1 | 360 |
| CNC(=O)c1c2cc(C3CC3)c(N(CCCN3CCOCC3)S(C)(=O)=O)cc2nn1-c1ccc(Br)cc1 | 220 |
| CCOC(=O)CCC(=O)NCCCN(c1cc2nn(-c3ccc(Br)cc3)c(C(=O)NC)c2cc1C1CC1)S(C)(=O)=O | 520 |
| CNC(=O)c1c2cc(C3CC3)c(N(CCCN3CCCCC3)S(C)(=O)=O)cc2nn1-c1ccc(Oc2ccc(F)cc2)cc1 | 1170 |
| CCCC(=O)NCCCN(c1cc2nn(-c3ccc(Br)cc3)c(C(=O)NC)c2cc1C1CC1)S(C)(=O)=O | 310 |
| CNC(=O)c1c2cc(C3CC3)c(N(CCCNC(=O)C(C)C)S(C)(=O)=O)cc2nn1-c1ccc(Br)cc1 | 250 |
| CNC(=O)c1c2cc(C3CC3)c(N(CCCNC(=O)c3cnn(C)c3C)S(C)(=O)=O)cc2nn1-c1ccc(Br)cc1 | 370 |

* * *

System: subgenomic genotype 1a replicon cell line
Assay: HCV replicon assay, genotype 1a
Assay type: cell-based, HCV genotype 1a
Settings: Hepatitis C virus
Reported log10(EC50) values for a set of molecules
parameter: log10(EC50) (log10 of the value in µM)

| molecule | log10(EC50) |
| --- | --- |
| CNC(=O)c1c2cc(C3CC3)c(N(CCCNC(=O)c3cccc(OC)c3F)S(C)(=O)=O)cc2nn1-c1ccc(Br)cc1 [Compound 189] | -1.10 |
| CNC(=O)c1c2cc(C3CC3)c(N(CCCNC(=O)c3ccoc3)S(C)(=O)=O)cc2nn1-c1ccc(Br)cc1 [Compound 160] | -0.47 |
| CNC(=O)c1c2cc(C3CC3)c(N(CCCSC)S(C)(=O)=O)cc2nn1-c1ccc(Br)cc1 [Compound 99] | -0.37 |
| CNC(=O)c1c2cc(C3CC3)c(N(CCCNC(=O)CCC(=O)OC)S(C)(=O)=O)cc2nn1-c1ccc(Br)cc1 [Compound 66] | -1.70 |
| CCOC(=O)CCN(c1cc2nn(-c3ccc(Br)cc3)c(C(=O)NC)c2cc1C1CC1)S(C)(=O)=O [Compound 131] | -0.35 |
| CCN(c1cc2nn(-c3ccc(Cl)cc3)c(C(=O)NC)c2cc1C1CC1)S(C)(=O)=O [Compound 175] | -0.59 |
| CCN(c1cc2nn(-c3ccc(Oc4ccc(F)cc4)nc3)c(C(=O)NC)c2cc1C1CC1)S(C)(=O)=O [Compound 136] | 0.18 |

* * *

Molecular target: 1b (BK) NS5bΔ21 (Hepatitis C virus genotype 1b (isolate BK) (HCV))
Assay: HCV polymerase inhibition assay, genotype 1b
Assay type: biochemical, HCV genotype 1b (BK)
Details: 1b (BK) NS5bΔ21, 33P-GTP incorporation; read-out: 1b polymerase IC50 (range class)
pIC50: −log10 of the molar value.

| compound | assay-target | pIC50 |
| --- | --- | --- |
| CNC(=O)c1c2cc(C3CC3)c(N(CCC(CO)CO)S(C)(=O)=O)cc2nn1-c1ccc(Cl)cc1 | 1b (BK) NS5bΔ21 (Hepatitis C virus genotype 1b (isolate BK) (HCV)) | > 6.00 |
| CNC(=O)c1c2cc(C3CC3)c(N(CCCN3C(=O)[C@H]4CCCC[C@H]4C3=O)S(C)(=O)=O)cc2nn1-c1ccc(Br)cc1 | 1b (BK) NS5bΔ21 (Hepatitis C virus genotype 1b (isolate BK) (HCV)) | > 6.00 |
| CNC(=O)c1c2cc(C3CC3)c(N(CCCC(=O)OCOC(=O)C(C)(C)C)S(C)(=O)=O)cc2nn1-c1ccc(Br)cc1 | 1b (BK) NS5bΔ21 (Hepatitis C virus genotype 1b (isolate BK) (HCV)) | > 6.00 |
| CNC(=O)c1c2cc(C3CC3)c(N(CCCC(=O)Oc3ccccc3)S(C)(=O)=O)cc2nn1-c1ccc(Br)cc1 | 1b (BK) NS5bΔ21 (Hepatitis C virus genotype 1b (isolate BK) (HCV)) | > 6.00 |
| CNC(=O)c1c2cc(C3CC3)c(N(CCNC(=O)Cc3nn[nH]n3)S(C)(=O)=O)cc2nn1-c1ccc(Br)cc1 | 1b (BK) NS5bΔ21 (Hepatitis C virus genotype 1b (isolate BK) (HCV)) | > 6.00 |
| CCN(c1cc2nn(-c3ccc(Oc4ccc(F)cc4)nc3)c(C(=O)NC)c2cc1C1CC1)S(C)(=O)=O | 1b (BK) NS5bΔ21 (Hepatitis C virus genotype 1b (isolate BK) (HCV)) | 5.00 to 6.00 |
| CNC(=O)c1c2cc(C3CC3)c(N(CCO)S(C)(=O)=O)cc2nn1-c1ccc(Br)cc1 | 1b (BK) NS5bΔ21 (Hepatitis C virus genotype 1b (isolate BK) (HCV)) | > 6.00 |
| CC[C@H](c1cc2nn(-c3ccc(F)cc3)c(C(=O)NC)c2cc1C1CC1)S(C)(=O)=O (racemic) | 1b (BK) NS5bΔ21 (Hepatitis C virus genotype 1b (isolate BK) (HCV)) | 4.30 to 5.00 |
| CNC(=O)c1c2cc(C3CC3)c(N(Cc3ccncc3)S(C)(=O)=O)cc2nn1-c1ccc(Br)cc1 | 1b (BK) NS5bΔ21 (Hepatitis C virus genotype 1b (isolate BK) (HCV)) | > 6.00 |
| CCN(c1cc2nn(-c3ccc(F)cc3)c(C(=O)NC)c2cc1C1=CCOCC1)S(C)(=O)=O | 1b (BK) NS5bΔ21 (Hepatitis C virus genotype 1b (isolate BK) (HCV)) | 4.30 to 5.00 |
| CNC(=O)c1c2cc(C3CC3)c(N(CC3CCOC3)S(C)(=O)=O)cc2nn1-c1ccc(Cl)cc1 (stereo not drawn) | 1b (BK) NS5bΔ21 (Hepatitis C virus genotype 1b (isolate BK) (HCV)) | > 6.00 |
| C=C(C)c1cc2c(C(=O)NC)n(-c3ccc(F)cc3)nc2cc1N(CC)S(C)(=O)=O | 1b (BK) NS5bΔ21 (Hepatitis C virus genotype 1b (isolate BK) (HCV)) | 4.30 to 5.00 |
| CCN(c1cc2nn(-c3ccc(F)cc3)c(C(=O)NC)c2cc1C)S(C)(=O)=O | 1b (BK) NS5bΔ21 (Hepatitis C virus genotype 1b (isolate BK) (HCV)) | 5.00 to 6.00 |
| CCc1cc2c(C(=O)NC)n(-c3ccc(F)cc3)nc2cc1N(CC)S(C)(=O)=O | 1b (BK) NS5bΔ21 (Hepatitis C virus genotype 1b (isolate BK) (HCV)) | 5.00 to 6.00 |
| CCOC(=O)CCN(c1cc2nn(-c3ccc(Br)cc3)c(C(=O)NC)c2cc1C1CC1)S(C)(=O)=O | 1b (BK) NS5bΔ21 (Hepatitis C virus genotype 1b (isolate BK) (HCV)) | > 6.00 |

* * *

Reported pIC50 values are given for each entry in this list.
Target: 1b (BK) NS5bΔ21 (Hepatitis C virus genotype 1b (isolate BK) (HCV), UniProt P26663)
Assay: HCV polymerase inhibition assay, genotype 1b
Assay type: biochemical, HCV genotype 1b (BK)
Details: 1b (BK) NS5bΔ21, 33P-GTP incorporation; read-out: 1b polymerase IC50 (range class)
pIC50: −log10 of the molar value.
parameter: pIC50

| record-smiles | result |
| --- | --- |
| CNC(=O)c1c2cc(C3CC3)c(N(CC(F)F)S(C)(=O)=O)cc2nn1-c1ccc(Cl)cc1 | > 6.00 |
| CCN(c1cc2nn(-c3ccc(F)cc3)c(C(=O)NC)c2cc1C1=CCCC1)S(C)(=O)=O | 4.30 to 5.00 |
| CCOC(=O)CCCN(c1cc2nn(-c3ccc(C)cc3)c(C(=O)NC)c2cc1C1CC1)S(C)(=O)=O | > 6.00 |
| CNC(=O)c1c2cc(C3CC3)c(N(CCCO)S(C)(=O)=O)cc2nn1-c1ccc(Nc2ccc(F)cc2)cc1 | > 6.00 |
| CNC(=O)c1c2cc(C3CC3)c(N(CCCNC(C)=O)S(C)(=O)=O)cc2nn1-c1ccc(Nc2ccc(F)cc2)cc1 | > 6.00 |
| CNC(=O)c1c2cc(C3CC3)c(N(CCCNC(=O)c3ccn(C)c(=O)c3)S(C)(=O)=O)cc2nn1-c1ccc(Br)cc1 | > 6.00 |
| CNC(=O)c1c2cc(C3CC3)c(N(CCOC(=O)c3ccccc3C(=O)O)S(C)(=O)=O)cc2nn1-c1ccc(F)cc1 | 5.00 to 6.00 |
